Molecular target: Adenosine receptors; A1 & A3 (Homo sapiens) (UniProt P30542+P0DMS8)
Sequence (P0DMS8 whole entry, looked up): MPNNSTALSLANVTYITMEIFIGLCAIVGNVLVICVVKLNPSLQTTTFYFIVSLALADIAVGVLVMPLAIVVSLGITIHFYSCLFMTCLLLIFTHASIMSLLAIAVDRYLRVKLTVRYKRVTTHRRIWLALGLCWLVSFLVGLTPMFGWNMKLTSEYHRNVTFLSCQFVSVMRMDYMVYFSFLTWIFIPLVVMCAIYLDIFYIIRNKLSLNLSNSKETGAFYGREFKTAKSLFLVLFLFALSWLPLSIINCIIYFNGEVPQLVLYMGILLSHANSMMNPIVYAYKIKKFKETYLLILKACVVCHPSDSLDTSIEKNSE
Sequence (P30542 whole entry, looked up): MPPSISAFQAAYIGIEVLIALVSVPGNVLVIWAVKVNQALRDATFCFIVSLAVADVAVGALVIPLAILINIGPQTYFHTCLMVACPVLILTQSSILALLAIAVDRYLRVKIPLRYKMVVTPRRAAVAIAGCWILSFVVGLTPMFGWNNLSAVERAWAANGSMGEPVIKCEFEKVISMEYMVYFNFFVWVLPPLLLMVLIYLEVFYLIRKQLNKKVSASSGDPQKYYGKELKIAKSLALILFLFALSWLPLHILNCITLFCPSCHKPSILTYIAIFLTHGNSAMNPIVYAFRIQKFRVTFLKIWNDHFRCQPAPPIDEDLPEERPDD
Assay: Selectivity for human adenosine A1 receptor over human adenosine A3 receptor
Measured Quantity: Ratio Ki
# print the numeric value only

Consider the reported Ratio Ki for these compounds:
INSERT INTO assay_data (compound_string, numeric_result) VALUES
  ('C[C@@]1(O)[C@H](O)[C@@H](CO)O[C@H]1n1cnc2c(N[C@@H]3CCOC3)ncnc21', 211),
  ('CNC(=O)OC[C@H]1O[C@@H](n2cnc3c(NC4CCCC4)nc(Cl)nc32)[C@](C)(O)[C@@H]1O', 7.5);

# return recorded Ratio Ki for input CNC(=S)OC[C@H]1O[C@@H](n2cnc3c(NC4CCCC4)nc(Cl)nc32)[C@](C)(O)[C@@H]1O 7.9
